Molecular target: ENL (Homo sapiens, UniProt Q03111)
Construct: against AF9(497-568) and ENL (489-559) proteins running different tested concentrations over CM5 chip; MBP (pMSCG9-LIC vector); made in house; host or cells: Escherichia coli BL21 (DE3)
Sequence (Q03111 489-559): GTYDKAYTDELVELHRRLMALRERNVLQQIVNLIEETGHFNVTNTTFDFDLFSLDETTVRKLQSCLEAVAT
Experiment: SPR competitive binding assay of small molecules, ENL
Settings: SPR competitive based assay; read-out: ENL IC50 ± SD
Recorded IC50 for the following compounds
Numbers only; they are read as µM.

Here are 4 compounds together with their reported answers.
compound	value.unit	IC50
CCc1ccc(S(=O)(=O)N2c3ccccc3NC3=C(C(=O)CCC3)C2c2cccs2)cc1 (stereo not drawn) [Compound 48]	µM	19.7
Cc1ccc(C)c(S(=O)(=O)N2c3ccccc3NC3=C(C(=O)CCC3)C2c2cccs2)c1 (stereo not drawn) [Compound 52]	µM	25.1
CCCc1ccc(S(=O)(=O)N2c3ccccc3NC3=C(C(=O)CCC3)C2c2ccco2)cc1 (stereo not drawn) [Compound 42]	µM	58.1
Cc1ccc(S(=O)(=O)N2c3ccccc3NC3=C(C(=O)CC(C)(C)C3)C2c2ccco2)cc1 (stereo not drawn) [Compound 41]	µM	33.2

Report measured IC50; entry is CCc1ccc(S(=O)(=O)N2c3ccccc3NC3=C(C(=O)CCC3)C2c2ccco2)cc1 (racemic) [Compound 38]
30.7
